System: neoplastic cells collected from spleen and abdominal tumor biopsy specimens
Assay: MiCK assay, patient specific cancer cell testing (Example 10)
Type: cell-based, human
Settings: person, tumor of unknown primary; maximum apoptotic response over the concentrations tested
*1 amine or outer side, *2 acyl side, *3 side chain or, on linkers, in order; H or OH if unused. Where a SMILES comes first, the peptide text is derived from it. Bridges are numbered along the chain shown (N, C = ends). Roman numbers before positions name the chains, in order. [ ]: non-standard residue; d: D form. Actinocin(9to1) = Cc1c2oc3c(C)ccc(C(=O)[*:1])c3nc-2c(C(=O)[*:2])c(N)c1=O; NMeV = CN[C@H](C(=O)O)C(C)C; Sar = CNCC(=O)O
Answer each item with its documented Max Resp. (KU).
Numbers only, in KU.

Example entries begin here.
Summary for this compound, O=P1(NCCCl)OCCCN1CCCl (stereo not drawn) [Ifosfamide, ifosfamide] : Max Resp. (KU) is 2.6

Summary for this compound, CNNCc1ccc(C(=O)NC(C)C)cc1 [Procarbazine] : Max Resp. (KU) is 1.3

Summary for this compound, C#Cc1cccc(Nc2ncnc3cc(OCCOC)c(OCCOC)cc23)c1 [Tarceva] : Max Resp. (KU) is 0.7

Summary for this compound, CCN(CC)CCNC(=O)c1c(C)[nH]c(/C=C2\C(=O)Nc3ccc(F)cc32)c1C [Sunifinib, Sunitinib] : Max Resp. (KU) is 7.9

Summary for this compound, Cc1ccc(NC(=O)c2ccc(CN3CCN(C)CC3)cc2)cc1Nc1nccc(-c2cccnc2)n1 [Gleevec (imatinib), imatinib] : Max Resp. (KU) is 1.5

Summary for this compound, Nc1ccn([C@@H]2O[C@H](CO)[C@@H](O)C2(F)F)c(=O)n1 [Gemzar, gemcitabine] : Max Resp. (KU) is 0.8

Batch: Max Resp. (KU) for all items listed.
1. Nc1nc2[nH]cc(CCc3ccc(C(=O)N[C@@H](CCC(=O)O)C(=O)O)cc3)c2c(=O)[nH]1 [Alimta, pemetrexed]
2. CN(C)/N=N/c1[nH]cnc1C(N)=O [Dacarbazine]
3. CCC1=C[C@@H]2CN(C1)Cc1c([nH]c3ccccc13)[C@@](C(=O)OC)(c1cc3c(cc1OC)N(C)[C@H]1[C@@](O)(C(=O)OC)[C@H](OC(C)=O)[C@]4(CC)C=CCN5CC[C@]31[C@@H]54)C2 [Vinor, vinorelbine]
4. CC(=O)O[C@@]12CO[C@@H]1C[C@H](O)[C@@]1(C)C(=O)[C@H](O)C3=C(C)[C@@H](OC(=O)[C@H](O)[C@@H](NC(=O)OC(C)(C)C)c4ccccc4)C[C@@](O)([C@@H](OC(=O)c4ccccc4)[C@H]21)C3(C)C [Taxotere, docetaxel]
5. CNC(=O)c1cc(Oc2ccc(NC(=O)Nc3ccc(Cl)c(C(F)(F)F)c3)cc2)ccn1 [Sorafenib]

1: 0.6; 2: 0.6; 3: 3.1; 4: 2.3; 5: 3.8

Batch: Max Resp. (KU) for all items listed.
1. CC(=O)O[C@H]1C(=O)[C@@]2(C)[C@H]([C@H](OC(=O)c3ccccc3)[C@]3(O)C[C@H](OC(=O)[C@H](O)[C@@H](NC(=O)c4ccccc4)c4ccccc4)C(C)=C1C3(C)C)[C@]1(OC(C)=O)CO[C@@H]1C[C@@H]2O [Taxol, paclitaxel]
2. O=c1[nH]cc(F)c(=O)[nH]1 [5FU, 5-fluorouracil]
3. CN(Cc1cnc2nc(N)nc(N)c2n1)c1ccc(C(=O)N[C@@H](CCC(=O)O)C(=O)O)cc1 [Methotrexate, methotrexate]

[1.6, 0.3, 0.8]

Batch: Max Resp. (KU) for all items listed.
1. COc1cccc2c1C(=O)c1c(O)c3c(c(O)c1C2=O)C[C@@](O)(C(C)=O)C[C@@H]3O[C@H]1C[C@H](N)[C@H](O)[C@H](C)O1 [Danorubicin, Daunorubicin]
2. Nc1ncn([C@@H]2O[C@H](CO)[C@@H](O)[C@H]2O)c(=O)n1 [Vidaza]
3. Cc1c2oc3c(C)ccc(C(=O)N[C@@H]4C(=O)N[C@H](C(C)C)C(=O)N5CCC[C@H]5C(=O)N(C)CC(=O)N(C)[C@@H](C(C)C)C(=O)O[C@@H]4C)c3nc-2c(C(=O)N[C@@H]2C(=O)N[C@H](C(C)C)C(=O)N3CCC[C@H]3C(=O)N(C)CC(=O)N(C)[C@@H](C(C)C)C(=O)O[C@@H]2C)c(N)c1=O [Dactinomycin] (I: T[dV]P[Sar][NMeV] / II: T[dV]P[Sar][NMeV]; ester I:1-I:C, II:1-II:C; linker I:N-II:N via Actinocin(9to1))
4. N.N.O=C([O-])C1(C(=O)[O-])CCC1.[Pt+2] [Carbo, Carboplatin]
5. CC(C)C[C@H](NC(=O)[C@H](Cc1ccccc1)NC(=O)c1cnccn1)B(O)O [Velcade]
6. CC[C@]1(O)C[C@@H]2CN(CCc3c([nH]c4ccccc34)[C@@](C(=O)OC)(c3cc4c(cc3OC)N(C)[C@H]3[C@@](O)(C(=O)OC)[C@H](OC(C)=O)[C@]5(CC)C=CCN6CC[C@]43[C@@H]65)C2)C1 [Vnbl, Vinblastine]
7. COc1cc([C@@H]2c3cc4c(cc3[C@@H](O[C@@H]3O[C@@H]5CO[C@@H](C)O[C@H]5[C@H](O)[C@H]3O)[C@H]3COC(=O)[C@H]23)OCO4)cc(OC)c1O [Etoposide, etoposide]

1. 3.1
2. 4.3
3. 4.0
4. 6.0
5. 3.8
6. 1.2
7. 0.8
